System: HOP-62 NSCLC
assay-notes: NCI-60 one-dose screen, 48 h (100 = growth as untreated, 0 = no growth, -100 = all killed)
measurement-conditions: 10 µM unless noted
The panel holds about 83,000 compounds, 20% with a hit somewhere; the sample as a whole holds those more often.
Classify by growth. Ranges: bottom bin (below -10%), middle bin (-10% to below 80%), top bin (80% or more)

Class (by measured growth) for `CC/C=C\C[C@@H]1C/C=C2/C(=O)C=C[C@H]2C/C=C\CCCC(=O)O1`
bottom bin

Request: CC1=C([Se]CC(OC(=O)[C@@H](CSSC(C)(C)C)NC(=O)OC(C)(C)C)C(=O)NC(C)(C)C)C(=O)c2ccccc2C1=O (some centres undefined)
bottom bin

Queued: `COc1ccc(-c2nc(NN)c3c(C)nn(-c4ccc(F)cc4)c3n2)cc1`
middle bin

Next compound up: `COc1cccc(-c2nn(-c3ccccc3)cc2-c2ccnc(N3CCOCC3)c2)c1`
top bin

Would you mind doing `CSc1nc2ccc(C)cc2cc1/C=N/O` as well?
top bin

And `COc1ccc(-c2[nH]c3ccc(OC)cc3c2/C=C(\C#N)S(=O)(=O)c2ccccc2)cc1` ?
middle bin

Item: `CCS(=O)(=O)c1ncnc2nc[nH]c12`
top bin

Now try CCCC1CCC(O)(C(C)(O)C(=O)NC2C(=O)N3NCCCC3C(=O)N(O)C(C)C(=O)N3NCCCC3C(=O)N3NCC(O)CC3C(=O)NC(C)C(=O)OC2C(C)C)OC1CC (centres undefined) .
bottom bin
